tumor lysis of RPMI-8226-luc, luciferase-based killing assay, E:T 5 reference
Molecular target: T1, BCMA on BCMA-positive multiple myeloma tumor lines RPMI-8226 and MM1.S (human, UniProt Q02223 1-184)
T1 sequence (looked up): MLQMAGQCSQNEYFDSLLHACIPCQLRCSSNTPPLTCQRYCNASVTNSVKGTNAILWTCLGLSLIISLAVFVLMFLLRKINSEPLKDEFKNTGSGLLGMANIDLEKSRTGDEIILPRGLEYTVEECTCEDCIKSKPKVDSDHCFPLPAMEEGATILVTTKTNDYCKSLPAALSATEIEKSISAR
Assay: cell-based or functional assay

BCMA CAR construct with ScFv sequence 3 (MTB-3) (other, not shown: large carriers) EVQLVESGGGVVQPGGSLRLSCAASGFTFSSYGMHWVRQAPGKGLEWVAFIRYDGSNKYYADSVKGRFTISRDNSKNTLYLQMNSLRAEDTAVYYCAKDDYGGNSEGDYWGQGTLVTVSSGGGGSGGGGSGGGGSEIVLTQSPATLSVSLGERATLSCRASQSVSNSLAWYQQKPGQAPRLLIYDASTRATGIPARFSGSGSGTEFTLTISSLQPEDFATYFCQQTYSPPITFGQGTRLEIKR; > 40%

Sample BCMA CAR construct with ScFv sequence 49 (MTB-49) (other, not shown: large carriers) EVQLVESGGGVVQPGRSLRLSCAASGFTFSSYGMHWVRQAPGKGLEWVAFIRYDGSNKYYADSVKGRFTISRDNSKNTLYLQMNSLRAEDTAVYYCVSDDYGGNSGTSYWGQGTLVTVSSGGGGSGGGGSGGGGSDIQMTQSPSSLSASVGDRVTITCQASQDISNYLNWYQQKPGKAPKLLIYDASNLETGVPSRFSGSGSGTDFTLTISSLQPEDFATYYCQQSYSTPVTFGGGTKLTVLG ; tumor lysis of RPMI-8226-luc, luciferase-based killing assay, E:T 5 observed: > 40%
